Measured IC50, listed per entry for reference.
# TESTED SYSTEM: recombinant N-terminal MLH1 (residues 15-340) (Homo sapiens, UniProt P40692)
# Construct: recombinant N-terminal MLH1 (residues 15-340)
# PROTOCOL NOTES: Fluorescence Polarisation Assay for MLH1
# TEST SETTINGS: fluorescence polarisation probe displacement; 100 nM N-terminal MLH1, 5 nM probe compound

Would you please look over these solved cases?
{"COMPOUND": "O=C(c1c(O)cc(O)cc1OCc1ccccc1)N1Cc2cccc(N[C@@H]3CCOC3)c2C1 [Example 23]", "IC50": "< 1 µM"}
{"COMPOUND": "COCCNc1cccc2c1CN(C(=O)c1c(O)cc(O)cc1OCc1ccccc1)CC2 [Example 44]", "IC50": "< 1 µM"}
{"COMPOUND": "O=C(c1c(O)cc(O)cc1OCc1ccccc1)N1Cc2cccc(NC3CCCOC3)c2C1 (single isomer, unassigned) [Example 30]", "IC50": "< 1 µM"}

Now consider a different compound.
Entry O=C(c1c(O)cc(O)cc1OCc1ccccc1)N1Cc2cccc(CNC3CCOC3)c2C1 (stereo not shown) [Example 80] — recorded IC50 = 1 to 10 µM

###

# TESTED SYSTEM: recombinant N-terminal MLH1 (residues 15-340) (Homo sapiens, UniProt P40692)
# Construct: recombinant N-terminal MLH1 (residues 15-340)
# PROTOCOL NOTES: Fluorescence Polarisation Assay for MLH1
# TEST SETTINGS: fluorescence polarisation probe displacement; 100 nM N-terminal MLH1, 5 nM probe compound
Recorded IC50, one value per entry.

Before answering, review these 7 worked examples.
{"COMPOUND": "CN1CCC(Nc2cccc3c2CN(C(=O)c2c(O)cc(O)cc2OCc2ccccc2)CC3)CC1=O (centres unmarked)", "IC50": "1000 to 10000 nM"}
{"COMPOUND": "CN1C[C@@H](Nc2cccc3c2CN(C(=O)c2c(O)cc(O)cc2OCc2ccccn2)CC3)CC1=O", "IC50": "< 1000 nM"}
{"COMPOUND": "O=C(c1c(O)cc(O)cc1OCC1CCCCC1)N1CCc2cccc(N[C@H]3CCOC3)c2C1", "IC50": "1000 to 10000 nM"}
{"COMPOUND": "CC1(NCc2cccc3c2CN(C(=O)c2c(O)cc(O)cc2OCc2ccccc2)C3)COC1", "IC50": "< 1000 nM"}
{"COMPOUND": "Cn1ncc(Nc2cccc3c2CN(C(=O)c2c(O)cc(O)cc2OCc2ccccc2)C3)n1", "IC50": "< 1000 nM"}
{"COMPOUND": "CN(C)CCOc1cc2c(c(N[C@@H]3CCOC3)c1)CN(C(=O)c1c(O)cc(O)cc1OCc1ccccc1)CC2", "IC50": "< 1000 nM"}
{"COMPOUND": "CN1CCC(Nc2cccc3c2CN(C(=O)c2c(O)cc(O)cc2OCc2ccccc2)CC3)C1 (centres unmarked)", "IC50": "< 1000 nM"}

Memo: "CN1CCN(Cc2cc3c(c(N[C@@H]4CCOC4)c2)CN(C(=O)c2c(O)cc(O)cc2OCc2ccccc2)CC3)CC1" , reported IC50: < 1000 nM

###

# TESTED SYSTEM: recombinant N-terminal MLH1 (residues 15-340) (Homo sapiens, UniProt P40692)
# Construct: recombinant N-terminal MLH1 (residues 15-340)
# Sequence (P40692 15-340): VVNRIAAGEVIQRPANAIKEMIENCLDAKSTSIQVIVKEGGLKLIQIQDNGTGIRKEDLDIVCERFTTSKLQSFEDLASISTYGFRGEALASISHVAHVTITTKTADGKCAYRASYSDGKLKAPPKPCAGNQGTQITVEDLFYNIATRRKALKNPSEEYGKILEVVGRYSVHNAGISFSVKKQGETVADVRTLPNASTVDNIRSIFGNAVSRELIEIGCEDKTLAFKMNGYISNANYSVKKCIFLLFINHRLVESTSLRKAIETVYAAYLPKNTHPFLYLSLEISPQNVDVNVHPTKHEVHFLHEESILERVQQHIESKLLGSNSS
# PROTOCOL NOTES: Fluorescence Polarisation Assay for MLH1
# TEST SETTINGS: fluorescence polarisation probe displacement; 100 nM N-terminal MLH1, 5 nM probe compound
pIC50: −log10 of the molar value.
READOUT NAME: pIC50

{"COMPOUND": "COC1COCC1Nc1cccc2c1CN(C(=O)c1c(O)cc(O)cc1OCc1ccccc1)CC2 (stereo not shown) [Example 148]", "pIC50": "5.00 to 6.00"}
{"COMPOUND": "O=C(c1c(O)cc(O)cc1OCc1ccccc1)N1Cc2cccc(NC3CCCOC3)c2C1 (stereo not shown) [Example 14]", "pIC50": "> 6.00"}
{"COMPOUND": "NC(=O)c1cccc(Nc2cccc3c2CN(C(=O)c2c(O)cc(O)cc2OCc2ccccc2)CC3)c1 [Example 74]", "pIC50": "< 5.00"}
{"COMPOUND": "O=C(c1c(O)cc(O)cc1OCc1ccncc1)N1Cc2cccc(NC3CCOC3)c2C1 (stereo not shown) [Example 97]", "pIC50": "> 6.00"}
{"COMPOUND": "O=C(c1c(O)cc(O)cc1OCc1ccccc1)N1CCc2ncnc(N[C@H]3CCOC3)c2C1 [Example 115]", "pIC50": "5.00 to 6.00"}
{"COMPOUND": "COc1cc2c(c(NC3CCOC3)c1)CN(C(=O)c1c(O)cc(O)cc1OCc1ccccc1)CC2 (single isomer, unassigned) [Example 72]", "pIC50": "> 6.00"}
{"COMPOUND": "CN1CC(Nc2cccc3c2CN(C(=O)c2c(O)cc(O)cc2OCc2ccccc2)CC3)CC1=O (single isomer, unassigned) [Example 61]", "pIC50": "> 6.00"}
{"COMPOUND": "CN(C)C(=O)c1cc2c(c(N[C@H]3CCOC3)c1)CN(C(=O)c1c(O)cc(O)cc1OCc1ccccc1)CC2 [Example 130]", "pIC50": "> 6.00"}

Lab book: pIC50 of CN1C[C@@H](Nc2cccc3c2CN(C(=O)c2c(O)cc(O)cc2OCc2ccccc2)C3)CC1=O [Example 137] noted as > 6.00

Quick note, pIC50 for CN1CC(Nc2cccc3c2CN(C(=O)c2c(O)cc(O)cc2OCc2ccccc2)CC3)CCC1=O (stereo not shown) [Example 70] landed at > 6.00

# pIC50 of O=C(c1c(O)cc(O)cc1OCc1ccccc1)N1Cc2cccc(OC3CCOC3)c2C1 (stereo not shown) [Example 88] = 5.00 to 6.00

###

# TESTED SYSTEM: recombinant N-terminal MLH1 (residues 15-340) (Homo sapiens, UniProt P40692)
# Construct: recombinant N-terminal MLH1 (residues 15-340)
# PROTOCOL NOTES: Fluorescence Polarisation Assay for MLH1
# TEST SETTINGS: fluorescence polarisation probe displacement; 100 nM N-terminal MLH1, 5 nM probe compound
pIC50: −log10 of the molar value.
Known pIC50 of a selection of molecules

Previously resolved entries follow.
{"MOLECULE": "COCOc1cc(OCOC)c(C(=O)N2CCc3cccc(N(C)C4CN(C(C)=O)C4)c3C2)c(OCc2ccccc2)c1 [Example 149]", "RESULT": "5.00 to 6.00"}
{"MOLECULE": "CC(=O)N1CCC[C@@H](Nc2cccc3c2CN(C(=O)c2c(O)cc(O)cc2OCc2ccccc2)CC3)C1 [Example 68]", "RESULT": "> 6.00"}
{"MOLECULE": "COCCOc1cc2c(c(N[C@H]3CCOC3)c1)CN(C(=O)c1c(O)cc(O)cc1OCc1ccccc1)CC2 [Example 64]", "RESULT": "> 6.00"}
{"MOLECULE": "O=C(c1c(O)cc(O)cc1OCc1ccccc1)N1Cc2ccccc2C(O)C1 (single isomer, unassigned) [Example 51]", "RESULT": "5.00 to 6.00"}
{"MOLECULE": "NC(=O)c1ccc(Nc2cccc3c2CN(C(=O)c2c(O)cc(O)cc2OCc2ccccc2)CC3)cc1 [Example 75]", "RESULT": "< 5.00"}
{"MOLECULE": "O=C(c1c(O)cc(O)cc1OCc1ccccc1)N1CCc2c(cccc2NC2CCOC2)C1 (stereo not shown) [Example 27]", "RESULT": "5.00 to 6.00"}

Recorded pIC50 (molecule Nc1cccc2c1CN(C(=O)c1c(O)cc(O)cc1OCc1ccccc1)CC2 [Example 100] ): 5.00 to 6.00

###

# TESTED SYSTEM: recombinant N-terminal MLH1 (residues 15-340) (Homo sapiens, UniProt P40692)
# Construct: recombinant N-terminal MLH1 (residues 15-340)
# PROTOCOL NOTES: Fluorescence Polarisation Assay for MLH1
# TEST SETTINGS: fluorescence polarisation probe displacement; 100 nM N-terminal MLH1, 5 nM probe compound
# Protocol: Fluorescence Polarisation Assay for MLH1 Test compounds, as 10 mM DMSO stocks, were dispensed into a 384-well Low Flange Black Flat Bottom Polystyrene Non-binding Surface plate (Corning®, item number 3575) using a Labcyte Echo acoustic liquid handler. […] Compound plates were centrifuged for 1 minute at 250×g for 1 minute and immediately read on a PheraStar FSX (fitted with 384-well aperture spoon and 590 675 675 FP optic module). […]
pIC50: −log10 of the molar value.
READOUT NAME: pIC50

Observe how each entry below is paired with its result.
{"COMPOUND": "O=C(Nc1cccc2c1CN(C(=O)c1c(O)cc(O)cc1OCc1ccccc1)CC2)C1CCOC1 (stereo not shown)", "RESULT": "< 5.00"}
{"COMPOUND": "CN(C)C(=O)c1cc2c(c(N[C@@H]3CCOC3)c1)CN(C(=O)c1c(O)cc(O)cc1OCc1ccccc1)CC2", "RESULT": "> 6.00"}
{"COMPOUND": "COCCOc1cc2c(c(N[C@@H]3CCOC3)c1)CN(C(=O)c1c(O)cc(O)cc1OCc1ccccn1)CC2", "RESULT": "> 6.00"}
{"COMPOUND": "O=C(c1c(O)cc(O)cc1OCc1ccccc1)N1Cc2cccc(NCC3CCOC3)c2C1 (stereo not shown)", "RESULT": "> 6.00"}
{"COMPOUND": "CNc1cccc2c1CN(C(=O)c1c(O)cc(O)cc1OCc1ccccc1)CC2", "RESULT": "> 6.00"}
{"COMPOUND": "O=C(c1c(O)cc(O)cc1OCc1cccnc1)N1Cc2cccc(NC3CCOC3)c2C1 (stereo not shown)", "RESULT": "> 6.00"}

Continue with the compound presented below.
Quick note, pIC50 for CN(C)C(=O)N1CCC(Nc2cccc3c2CN(C(=O)c2c(O)cc(O)cc2OCc2ccccc2)CC3)C1 (stereo not shown) landed at > 6.00
